Recorded measurements of log10 IC50, one per entry
SYSTEM_UNDER_TEST: EGFR del19/T790M (Homo sapiens (Human), UniProt P00533, DEL746-750/T790M)
Sequence (P00533 other isoform, or with tags, fused parts or gaps T790M/del 1-668/del 746-750 limits assumed): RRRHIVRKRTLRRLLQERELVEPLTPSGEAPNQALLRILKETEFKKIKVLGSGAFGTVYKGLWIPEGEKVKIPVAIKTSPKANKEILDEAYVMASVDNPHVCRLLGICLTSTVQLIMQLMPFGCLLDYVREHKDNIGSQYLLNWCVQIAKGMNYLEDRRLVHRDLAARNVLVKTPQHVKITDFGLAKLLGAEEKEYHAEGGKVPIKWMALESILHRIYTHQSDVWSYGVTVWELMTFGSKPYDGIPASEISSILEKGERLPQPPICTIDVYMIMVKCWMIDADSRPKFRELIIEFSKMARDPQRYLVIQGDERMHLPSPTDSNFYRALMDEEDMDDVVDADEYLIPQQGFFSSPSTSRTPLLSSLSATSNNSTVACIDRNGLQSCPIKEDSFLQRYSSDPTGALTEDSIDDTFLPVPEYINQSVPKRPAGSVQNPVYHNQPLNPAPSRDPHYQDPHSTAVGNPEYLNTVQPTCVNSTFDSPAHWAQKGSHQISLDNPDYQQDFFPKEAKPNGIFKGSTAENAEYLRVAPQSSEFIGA
RUN_DESCRIPTION: HTRF enzyme assay, EGFR del19/T790M
Format: biochemical
EXPERIMENTAL_CONDITIONS: recombinant enzyme
Hey, these are logged values: log10 of IC50, µM being the unit before logging.

Please review the entries below; each comes with its answer.
>>> reported_result("COc1cc(N2CCC(N3CCNCC3)CC2)ccc1Nc1ncc(Cl)c(Nc2ccccc2NS(C)(=O)=O)n1")
-1.85
>>> reported_result("COc1cc(N2CCN(C3CCNCC3)CC2)ccc1Nc1ncc(Cl)c(Nc2ccccc2NS(C)(=O)=O)n1")
-1.68
>>> reported_result("COc1cc(C2CCN(CCO)CC2)ccc1Nc1ncc(Cl)c(Nc2ccccc2NS(C)(=O)=O)n1")
-0.60
>>> reported_result("COc1cc(N2CCNCC2)ccc1Nc1ncc(Br)c(Nc2ccccc2NS(N)(=O)=O)n1")
-1.47
>>> reported_result("COc1cc(C2CCNCC2)ccc1Nc1ncc(Br)c(Nc2ccccc2NS(N)(=O)=O)n1")
-1.42
>>> reported_result("COc1cc(C2CCNCC2)ccc1Nc1ncc(Br)c(Nc2ccccc2NS(C)(=O)=O)n1")
-2.30

Kindly note the recorded log10 IC50 for COc1cc(N2CCC(N3CCN(C)CC3)CC2)ccc1Nc1ncc(Cl)c(Nc2ccccc2NS(C)(=O)=O)n1 , which is -2.40

Kindly note the recorded log10 IC50 for COc1cc(C2CCNCC2)ccc1Nc1ncc(Cl)c(Nc2ccccc2NS(N)(=O)=O)n1 , which is -2.00

Kindly note the recorded log10 IC50 for COc1cc(N2CCNCC2)ccc1Nc1ncc(Cl)c(Nc2ccccc2NS(C)(=O)=O)n1 , which is -1.49

Kindly note the recorded log10 IC50 for COc1cc(N2CCNCC2)ccc1Nc1ncc(C(F)(F)F)c(Nc2ccccc2NS(C)(=O)=O)n1 , which is -1.54

Kindly note the recorded log10 IC50 for COc1cc(N2CCC(N(C)C)CC2)ccc1Nc1ncc(Cl)c(Nc2ccccc2NS(C)(=O)=O)n1 , which is -2.51

Kindly note the recorded log10 IC50 for COc1cc(N2CCOCC2)ccc1Nc1ncc(Cl)c(Nc2ccccc2NS(C)(=O)=O)n1 , which is -0.80

Kindly note the recorded log10 IC50 for COc1cc(N2CCN(C)CC2)ccc1Nc1ncc(Cl)c(Nc2ccccc2NS(C)(=O)=O)n1 , which is -1.57

Kindly note the recorded log10 IC50 for COc1cc(N2CCC(N3CCN(C(C)=O)CC3)CC2)ccc1Nc1ncc(Cl)c(Nc2ccccc2NS(C)(=O)=O)n1 , which is -1.16

Kindly note the recorded log10 IC50 for COc1cc(C2CCNCC2)c(C)cc1Nc1ncc(Cl)c(Nc2ccccc2NS(C)(=O)=O)n1 , which is -1.92

Kindly note the recorded log10 IC50 for COc1cc(C2CCN(C3CCN(C(C)=O)CC3)CC2)ccc1Nc1ncc(Cl)c(Nc2ccccc2NS(C)(=O)=O)n1 , which is -1.04

---

System: Ba/F3 EGFR del19/T790M/C797S cell line
RUN_DESCRIPTION: CellTiter-Glo cell viability, Ba/F3 EGFR del19/T790M/C797S
Assay type: cell-based
EXPERIMENTAL_CONDITIONS: CellTiter-Glo, 72 hours, read-out: Ba/F3 EGFR del19/T790M/C797S IC50
Experimental: The measurement of an activity on wild-type and mutation Ba/F3 EGFR cell line of the compound of the present invention was experimented by utilizing the CellTiter-Glo system sold by Promega, as follow. The CellTiter-Glo assay is a method for measuring the ATP present in cells in cell culture conditions to determine the cell viability. The analysis of an EGFR inhibitory ability effect of the compound was carried out in accordance with the analysis reaction recipe below. […]
MEASURE_NAME: IC50 (µM)
Reply numerically in µM, unit not repeated.

Please review the entries below; each comes with its answer.
>>> reported_result("COc1cc(N2CCC(N)CC2)ccc1Nc1ncc(Cl)c(Nc2ccccc2NS(C)(=O)=O)n1")
0.84
>>> reported_result("COc1cc(N2CCOCC2)ccc1Nc1ncc(Cl)c(Nc2ccccc2NS(C)(=O)=O)n1")
3.3
>>> reported_result("COc1cc(C2CCN(C)CC2)ccc1Nc1ncc(Cl)c(Nc2ccccc2NS(C)(=O)=O)n1")
0.08
>>> reported_result("COc1cc(N2CCC(N(C)C)CC2)ccc1Nc1ncc(Cl)c(Nc2ccccc2NS(C)(=O)=O)n1")
0.038
>>> reported_result("COc1cc(N2CCNCC2)ccc1Nc1ncc(Br)c(Nc2ccccc2NS(N)(=O)=O)n1")
2.7
>>> reported_result("COc1cc(C2CCNCC2)ccc1Nc1ncc(Br)c(Nc2ccccc2NS(N)(=O)=O)n1")
3.3
>>> reported_result("COc1cc(N2CCC(N3CCCC3)CC2)ccc1Nc1ncc(Cl)c(Nc2ccccc2NS(C)(=O)=O)n1")
0.084
>>> reported_result("COc1cc(N2CCC(N3CCNCC3)CC2)ccc1Nc1ncc(Cl)c(Nc2ccccc2NS(C)(=O)=O)n1")
1.7

Kindly note the recorded IC50 for CNC1CCN(c2ccc(Nc3ncc(Cl)c(Nc4ccccc4NS(C)(=O)=O)n3)c(OC)c2)CC1 , which is 0.5

Kindly note the recorded IC50 for COc1cc(N2CCC(N3CCN(C(C)=O)CC3)CC2)ccc1Nc1ncc(Cl)c(Nc2ccccc2NS(C)(=O)=O)n1 , which is 0.97

Kindly note the recorded IC50 for COc1cc(C2CCN(C3CCN(C(C)=O)CC3)CC2)ccc1Nc1ncc(Cl)c(Nc2ccccc2NS(C)(=O)=O)n1 , which is 2
